This collection of values is drawn from patent US20220177587A1.

# testedSystem: CD28 (human) (UniProt P10747)
# testProtocol: flow cytometry, Jurkat/IL2 reporter cells (CD28), vs WT CD80 ECD-Fc (R&D)
measure: Fold change to WT CD80 (fold)
Give bare numbers, in fold.

binder	unitDescriptor	Fold change to WT CD80
variant CD80 IgV-Fc E35D/D46E/M47V/N63D/L85Q (Fc fusion) VIHVTKEVKEVATLSCGHNVSVEELAQTRIYWQKDKKMVLTMMSGEVNIWPEYKNRTIFDITDNLSIVILALRPSDEGTYECVVQKYEKDAFKREHLAEVTLSVKAD	fold	0.07

Note: attention shifts to another entry.
Field Fold change to WT CD80 (entry variant CD80 IgV-Fc V22A/E35D/M47I/Y87N (Fc fusion) VIHVTKEVKEVATLSCGHNVSAEELAQTRIYWQKDKKMVLTMMSGDINIWPEYKNRTIFDITNNLSIVILALRPSDEGTYECVVLKNEKDAFKREHLAEVTLSVKAD ) reads 0.85
